# Tested on: Fibrinogen (Alexa647-labelled)
# METHOD NOTES: fibrinogen binders on compound microarrays, profiling panel, artefact control for SMM control-protein annotation, biochemical, small-molecule microarray, 635/667 nm fluorescence (AID 1131);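 also: z-score merges 667 nm fluorescence with per-spot signal-to-noise over triplicate slides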
# EXPERIMENTAL CONTEXT: fibrinogen-A647 binding fluorescence, higher = more signal
We'd kindly ask you to apply these composite z-score classes: low = under 0.7, medium = from 0.7 up to 0.9, high = 0.9 and over

{"columns": ["COMPOUND", "GROUP"],
 "data": [
  ["C=CCNC(=O)[C@@H]1[C@H]2C(=O)O[C@H](c3ccccc3)[C@H](c3ccccc3)N2[C@H](c2ccc(OCCO)cc2)[C@@]12C(=O)N(C(=O)OCCOC)c1ccc(C#CCCO)cc12", "medium"],
  ["COc1cc2c(cc1O)C(c1cccs1)N(Cc1sc3ccccc3c1Cl)CC2 (stereo not drawn)", "high"],
  ["COCCOC(=O)N1C(=O)[C@@]2(c3cc(C#CCNC(N)=O)ccc31)[C@H](c1ccc(O)cc1)N1[C@H](c3ccccc3)[C@H](c3ccccc3)OC(=O)[C@H]1[C@@H]2C(=O)N1CCN(c2ncccn2)CC1", "medium"]
]}

IN: For the record C=C(C)[C@@H]1CC=C(C(O)C2C=CC3C(=O)N(c4ccccc4)C(=O)C3N2Nc2ccc(C#N)cc2)CC1 (stereo partly drawn) , report the class its composite z-score corresponds to.
OUT: high

IN: For the record `COc1ccc([Si](C)(C)[C@@H]2[C@@H](CCn3cc([C@H](O)c4ccccc4)nn3)O[C@]3(C(=O)N(Cc4cccc(N5C(=O)c6cccc7cccc5c67)c4)c4ccccc43)[C@H]2C)cc1` , report the class its composite z-score corresponds to.
OUT: low

IN: For the record `COC(=O)C(CC#Cc1ccc2c(c1)[C@]1(C(=O)N2)[C@H](c2ccc(O)cc2)N2[C@H](c3ccccc3)[C@H](c3ccccc3)OC(=O)[C@H]2[C@@H]1C(=O)N1CCCCCCC1)C(=O)OC` , report the class its composite z-score corresponds to.
OUT: high

IN: For the record `C=C(/C(=C/C[C@@H](OC(C)=O)c1ccc(OCCO)cc1)c1cc(C(=O)OC)ccc1OC)C(C)C` , report the class its composite z-score corresponds to.
OUT: low

IN: For the record `O=C(O)[C@@H]1C[C@@H]2C(=O)N3CCC[C@H]3C(=O)N2[C@@H]1c1cccc(OCCO)c1` , report the class its composite z-score corresponds to.
OUT: high

IN: For the record O=C1C2C=CC(C(O)c3ccc4c(c3)OCO4)N(Nc3ccccc3)C2C(=O)N1c1ccccc1 (stereo not drawn) , report the class its composite z-score corresponds to.
OUT: high

IN: For the record `C=C(COC)C(=O)CC[C@@H](OC(=O)c1cccnc1)c1ccccc1OCCO` , report the class its composite z-score corresponds to.
OUT: low

IN: For the record C=CC1c2cc(O)c(OC)cc2CCN1Cc1ccc([N+](=O)[O-])o1 (stereo not drawn) , report the class its composite z-score corresponds to.
OUT: low
